- Tested on: Soybean
- protocol summary: Soybean Trial 1, pot trial, foliar spray at V2-V3
- Format: in vivo
- assay conditions: soybean, at harvest
assay readout: No of Large Pod Bearing Branches/Plant at Harvest

[[record]]
molecule = "Nc1ccccc1C(=O)O"
endpoint_value = 1.0

[[record]]
molecule = "CCOC(=O)C1CC(=O)C(=C(O)C2CC2)C(=O)C1 (stereo not drawn)"
endpoint_value = 1.0

[[record]]
molecule = "CC(=O)Nc1ccc(O)cc1 [AC, N-(4-hydroxypheyl)acetamide]"
endpoint_value = 1.0

[[record]]
molecule = "CC1(C)CCC(Cc2ccc(Cl)cc2)C1(O)Cn1cncn1 (stereo not drawn) [MET2, Metconazole]"
endpoint_value = 1.0

[[record]]
molecule = "C[N+](C)(C)CCCl [CCC, Chlormequat chloride]"
endpoint_value = 1.0


Please turn your attention to the following entry.
Input: Given the entry CC1(C)CCC(Cc2ccc(Cl)cc2)C1(O)Cn1cncn1 (stereo not drawn) [MET, Metconazole] , report its measured No of Large Pod Bearing Branches/Plant at Harvest.
Output: 1.1
